readout.kind: logP

P. O=C(CCCC(F)F)Nc1ccccc1
Q. O=C(c1ccccc1)N1CCC(F)(F)C1
*Q* Which of the two items, P and Q , has the greater recorded logP? # reply format: chosen label
*A* P
(P: 2.06, Q: 1.35)

----------
readout.kind: logP

[[record]]
molecule = "O=C(NC1CCC1(F)F)c1ccccc1 (centres undefined)"
readout_kind = "logP"
measured_result = 1.7

[[record]]
molecule = "O=C(c1ccccc1)N1CCCC(C(F)(F)F)C1 (centres undefined)"
readout_kind = "logP"
measured_result = 2.21

[[record]]
molecule = "O=C(Nc1ccccc1)[C@@H]1CC[C@H]1F"
readout_kind = "logP"
measured_result = 2.04

[[record]]
molecule = "O=C(c1ccccc1)N1CC2CCC1C2 (centres undefined)"
readout_kind = "logP"
measured_result = 1.65

[[record]]
molecule = "O=C(c1ccccc1)N1CCCCC1C(F)(F)F (centres undefined)"
readout_kind = "logP"
measured_result = 2.54

[[record]]
molecule = "C[C@@H]1C[C@@H]1C(=O)Nc1ccccc1"
readout_kind = "logP"
measured_result = 2.31

[[record]]
molecule = "C[C@@H]1C[C@@H]1NC(=O)c1ccccc1"
readout_kind = "logP"
measured_result = 1.64

[[record]]
molecule = "O=C(N[C@@H]1C[C@H]1CF)c1ccccc1"
readout_kind = "logP"
measured_result = 1.41

[[record]]
molecule = "O=C(Nc1ccccc1)[C@H]1C[C@H](F)C1"
readout_kind = "logP"
measured_result = 2

[[record]]
molecule = "O=C(NC1CCCCC1(F)F)c1ccccc1 (centres undefined)"
readout_kind = "logP"
measured_result = 2.16

[[record]]
molecule = "O=C(c1ccccc1)N1CCC(C(F)(F)F)C1 (centres undefined)"
readout_kind = "logP"
measured_result = 1.7

[[record]]
molecule = "O=C(NCC(F)(F)F)c1ccccc1"
readout_kind = "logP"
measured_result = 1.76

[[record]]
molecule = "O=C(NC1C(F)(F)C12CC2)c1ccccc1 (centres undefined)"
readout_kind = "logP"
measured_result = 2.14

[[record]]
molecule = "O=C(Nc1ccccc1)C1CCC1(F)F (centres undefined)"
readout_kind = "logP"
measured_result = 2.03

[[record]]
molecule = "O=C(c1ccccc1)N1CCCC1CF (centres undefined)"
readout_kind = "logP"
measured_result = 1.75

[[record]]
molecule = "O=C(c1ccccc1)N1CCC(C(F)F)CC1"
readout_kind = "logP"
measured_result = 1.67

[[record]]
molecule = "O=C(NCCCF)c1ccccc1"
readout_kind = "logP"
measured_result = 1.28

[[record]]
molecule = "O=C(Nc1ccccc1)C1CC(F)(F)C1"
readout_kind = "logP"
measured_result = 2.26

[[record]]
molecule = "O=C(N[C@H]1C[C@H](C(F)F)C1)c1ccccc1"
readout_kind = "logP"
measured_result = 1.97


----------
readout.kind: logP

[[record]]
compound = "O=C(Nc1ccccc1)C1CCCC(F)(F)C1 (stereo unspecified)"
readout_kind = "logP"
measured_result = 2.72

[[record]]
compound = "O=C(NCCF)c1ccccc1"
readout_kind = "logP"
measured_result = 1.07

[[record]]
compound = "O=C(c1ccccc1)N1CC2COCC(C1)C2(F)F"
readout_kind = "logP"
measured_result = 1.19


I. O=C(NC1(C(F)(F)F)CCC1)c1ccccc1
II. O=C(NCC(F)F)c1ccccc1
*Q* Which entry shows the lesser value of logP here, I or II ? # reply format: chosen label
*A* II

----------
readout.kind: logP

Here's what some known entries look like.
[[record]]
compound = "O=C(Nc1ccccc1)[C@H]1C[C@H]1C(F)(F)F"
measured_result = 2.12

[[record]]
compound = "O=C(Nc1ccccc1)C1CCC1"
measured_result = 2.26

[[record]]
compound = "O=C(NC1CC2(CC(F)C2)C1)c1ccccc1 (stereo unspecified)"
measured_result = 2.39

[[record]]
compound = "O=C(Nc1ccccc1)C1CC2(C1)CC(F)(F)C2"
measured_result = 2.93

[[record]]
compound = "O=C(NC1CCCC(F)(F)C1)c1ccccc1 (stereo unspecified)"
measured_result = 2.31

[[record]]
compound = "O=C(NC1CC1(F)F)c1ccccc1 (stereo unspecified)"
measured_result = 1.51


P. CC(F)(F)CCC(=O)Nc1ccccc1
Q. O=C(c1ccccc1)N1C[C@@H](F)C[C@H](F)C1
*Q* Which entry shows the lesser value of logP here, P or Q ? # reply format: chosen label
*A* Q

----------
readout.kind: logP

[[record]]
compound = "C[C@@H]1C[C@H]1NC(=O)c1ccccc1"
readout_kind = "logP"
measured_result = 1.83

[[record]]
compound = "O=C(N[C@H]1C[C@H](F)C1)c1ccccc1"
readout_kind = "logP"
measured_result = 1.71

[[record]]
compound = "O=C(Nc1ccccc1)C1CCC(F)(F)C1 (stereo not drawn)"
readout_kind = "logP"
measured_result = 2.5

[[record]]
compound = "O=C(NC1CCCCCC1(F)F)c1ccccc1 (stereo not drawn)"
readout_kind = "logP"
measured_result = 2.56

[[record]]
compound = "O=C(N[C@@H]1C[C@@H]2C[C@@H]2C1)c1ccccc1"
readout_kind = "logP"
measured_result = 2.3

[[record]]
compound = "C[C@@H]1C[C@H]1C(=O)Nc1ccccc1"
readout_kind = "logP"
measured_result = 2.42

[[record]]
compound = "O=C(c1ccccc1)N1CCCC(C(F)F)C1 (stereo not drawn)"
readout_kind = "logP"
measured_result = 1.73

[[record]]
compound = "O=C(N[C@@H]1C[C@H]1C(F)(F)F)c1ccccc1"
readout_kind = "logP"
measured_result = 1.79

[[record]]
compound = "O=C(c1ccccc1)N1CCCC(F)(F)C1"
readout_kind = "logP"
measured_result = 1.65

[[record]]
compound = "O=C(N[C@H]1C[C@@H]2C[C@@H]2C1)c1ccccc1"
readout_kind = "logP"
measured_result = 2.19

[[record]]
compound = "O=C(NC1CCC1)c1ccccc1"
readout_kind = "logP"
measured_result = 1.95

[[record]]
compound = "O=C(NC1CC12CC2(F)F)c1ccccc1 (stereo not drawn)"
readout_kind = "logP"
measured_result = 2.04

[[record]]
compound = "O=C(NC1CCCCC(F)(F)C1)c1ccccc1 (stereo not drawn)"
readout_kind = "logP"
measured_result = 2.57

[[record]]
compound = "O=C(Nc1ccccc1)C1CC12CC2 (stereo not drawn)"
readout_kind = "logP"
measured_result = 2.35

[[record]]
compound = "O=C(c1ccccc1)N1CC2CCCC1C2 (stereo not drawn)"
readout_kind = "logP"
measured_result = 1.88

[[record]]
compound = "O=C(NC1CC(F)(F)C1)c1ccccc1"
readout_kind = "logP"
measured_result = 1.94

[[record]]
compound = "O=C(Nc1ccccc1)C12CC(C(F)(F)F)(CO1)C2"
readout_kind = "logP"
measured_result = 2.05

[[record]]
compound = "O=C(Nc1ccccc1)C1CCCC1(F)F (stereo not drawn)"
readout_kind = "logP"
measured_result = 2.25

